System: NCI-H522 lung
Experiment summary: NCI-60 one-dose screen, 48 h
Run conditions: 10 µM unless noted
About 83,000 compounds went through this panel and 20% of them were active in at least one assay; those are over-represented in the sample as a whole. Active and inactive are the calls of the source. How the source made its calls: active means growth percent below 10; inactive means the rest.
Possible outcomes: 1 for active, 0 for inactive

>>> class_assignment("C#Cc1cccc(Nc2nc(Cl)nc3cc(NC(=O)CF)ccc23)c1")
0
>>> class_assignment("O=C(O)CNCP(=O)(O)O")
0
>>> class_assignment("Cc1cc[c-]cc1.Fc1c[c-]c(-c2ccccn2)c(F)c1.N#CCC[PH+](CCC#N)c1ccccc1.[Pt+2]")
0
>>> class_assignment("COc1cc(-c2ccc(N)c(OC)c2)ccc1N")
0
>>> class_assignment("O=C(O)c1ccccc1N(CCO)CCCl")
0
>>> class_assignment("CC[PH+](CC)CC.O=COC1OC([S-])C(OC=O)C(OC=O)C1OC=O.[Au+] (stereo not drawn)")
1
>>> class_assignment("C[C@]12CCc3sc(Nc4ccc(O)cc4)nc3C1=CC[C@@H]1[C@@H]2CC[C@]2(C)C(=O)CC[C@@H]12")
1
>>> class_assignment("COc1ccc(O)c2c(=O)c3c(OC)cc4c(c3oc12)[C@@H]1C=CO[C@@H]1O4")
0
>>> class_assignment("O=C(Cc1ccccc1)NC(O)C(Cl)(Cl)Cl (stereo not drawn)")
0
>>> class_assignment("C[C@]12CCc3sc(Nc4ccc(F)cc4)nc3C1=CC[C@@H]1[C@@H]2CC[C@]2(C)C(=O)CC[C@@H]12")
0
>>> class_assignment("COC(=O)C12C3C4C1C1C2C3C41NC(=O)c1csc([C@@H](C[C@H](C(C)C)N(C)C(=O)[C@@H](NC(=O)[C@H]2CCCCN2C)C2CC2)OC(C)=O)n1 (stereo partly drawn)")
1
>>> class_assignment("CC[C@H](C)[C@H](NC(=O)[C@H]1CCCCN1C)C(=O)N(C)[C@H](CCc1nc(C(=O)N[C@@H](Cc2ccccc2)C[C@H](C)C(=O)O)cs1)C(C)C")
1
>>> class_assignment("C[N+]1(C)CCCC1c1cccnc1 (stereo not drawn)")
0
>>> class_assignment("CC(=O)Nc1nc2c(s1)C1=CC[C@H]3[C@@H]4CC[C@H](OC(C)=O)[C@@]4(C)CC[C@@H]3[C@@]1(C)CC2")
0
>>> class_assignment("O=NN(c1ccccc1)c1ccccc1")
0
>>> class_assignment("COc1ccc(N)cc1OC")
0
>>> class_assignment("COCC1OC2OC3C(COC)OC(OC4C(COC)OC(OC5C(COC)OC(OC6C(COC)OC(OC7C(COC)OC(OC8C(COC)OC(OC1C(O)C2O)C(O)C8O)C(O)C7O)C(O)C6O)C(O)C5O)C(O)C4O)C(O)C3O (stereo not drawn) (tested in a mixture with another compound)")
0
>>> class_assignment("COC12CC3C4=CCOC5CC(=O)N6c7ccccc7C1(CCN2C4)C6C53 (stereo not drawn)")
0
